# Procedure summary: Half life of compound in ICE assay buffer (1 mM dithiothreitol) at 25 degree C (89% intact after 120 h)
# Format: ADME
# Particulars: ICE assay buffer with 1 mM dithiothreitol
Measured endpoint: half-life

Ask | Query: half-life; subject: CC(C)[C@H](NC(=O)OCc1ccccc1)C(=O)N[C@@H](C)C(=O)NN(CC(=O)O)C(=O)CCl
Reply | > 120 h

---

# Procedure summary: Half life of compound in ICE assay buffer (1 mM glutathione) at […] degree C
# Format: ADME
# Particulars: ICE assay buffer with 1 mM glutathione
Exercise: state measured half-life for each of the compounds provided.
Give bare numbers, in h.

Ask | Query: half-life; subject: CC(C)[C@H](NC(=O)OCc1ccccc1)C(=O)N[C@@H](C)C(=O)N[C@@H](CC(=O)O)C(=O)COP(=O)(c1ccccc1)c1ccccc1
Reply | 0.96

Ask | Query: half-life; subject: CC(C)[C@H](NC(=O)OCc1ccccc1)C(=O)N[C@@H](C)C(=O)NN(CC(=O)O)C(=O)COP(=O)(c1ccccc1)c1ccccc1
Reply | 130

Next:
Ask | Query: half-life; subject: CC(C)[C@H](NC(=O)OCc1ccccc1)C(=O)N[C@@H](C)C(=O)NN(CC(=O)O)C(=O)CCl
Reply | 3.5

---

# Procedure summary: Half life of compound in ICE assay buffer (1 mM dithiothreitol) at 25 degree C (98% intact after 120 h)
# Format: ADME
# Particulars: ICE assay buffer with 1 mM dithiothreitol
Measured endpoint: half-life

Ask | Query: half-life; subject: CC(C)[C@H](NC(=O)OCc1ccccc1)C(=O)N[C@@H](C)C(=O)NN(CC(=O)O)C(=O)COP(=O)(c1ccccc1)c1ccccc1
Reply | > 120 h

---

# Procedure summary: Half life of compound in ICE assay buffer (1 mM dithiothreitol) at 25 degree C
# Format: ADME
# Particulars: ICE assay buffer with 1 mM dithiothreitol
Where a SMILES comes first, the peptide text is derived from it.
Measured endpoint: half-life (min)
Numbers only, in min.

Ask | Query: half-life; subject: CC(C)[C@H](NC(=O)OCc1ccccc1)C(=O)N[C@@H](C)C(=O)N[C@@H](CC(=O)O)C(=O)CCl (HELM PEPTIDE1{[O=C(OCc1ccccc1)[*:2]].V.A.D.[ClC[*:1]]}$$$$V2.0)
Reply | 15

---

# Target system: Caspase-1 (Homo sapiens) (UniProt P29466)
# Sequence (P29466 120-297 limits assumed): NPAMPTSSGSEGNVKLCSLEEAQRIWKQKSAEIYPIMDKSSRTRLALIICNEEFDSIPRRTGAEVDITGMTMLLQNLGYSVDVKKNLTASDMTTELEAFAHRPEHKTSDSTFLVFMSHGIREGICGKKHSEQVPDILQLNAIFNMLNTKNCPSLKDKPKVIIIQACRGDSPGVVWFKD
# Sequence (P29466 317-404 limits assumed): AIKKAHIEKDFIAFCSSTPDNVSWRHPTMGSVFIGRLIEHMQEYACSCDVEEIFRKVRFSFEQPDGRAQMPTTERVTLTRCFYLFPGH
# Procedure summary: Compound was tested for inhibition of IL-1 beta converting enzyme by measuring second order rate of inactivation
Measured endpoint: second-order inactivation rate constant (kobs/[I]) (M⁻¹ s⁻¹)
Give bare numbers, in M⁻¹ s⁻¹.

Ask | Query: second-order inactivation rate constant (kobs/[I]); subject: CC(C)[C@H](NC(=O)OCc1ccccc1)C(=O)N[C@@H](C)C(=O)NN(CC(=O)O)C(=O)COP(=O)(c1ccccc1)c1ccccc1
Reply | 19400

Fill in second-order inactivation rate constant (kobs/[I]) for each of the 2 compounds listed.
1. CC(C)[C@H](NC(=O)OCc1ccccc1)C(=O)N[C@@H](C)C(=O)N[C@@H](CC(=O)O)C(=O)COP(=O)(c1ccccc1)c1ccccc1
2. CC(C)[C@H](NC(=O)OCc1ccccc1)C(=O)N[C@@H](C)C(=O)NN(CC(=O)O)C(=O)COc1cc(C(F)(F)F)nn1-c1ccccc1

Reply |
[118000, 470]

Ask | Query: second-order inactivation rate constant (kobs/[I]); subject: CC(C)[C@H](NC(=O)OCc1ccccc1)C(=O)N[C@@H](C)C(=O)NN(CC(=O)O)C(=O)COC(=O)c1c(Cl)cccc1Cl
Reply | 700

---

# Target system: Caspase-1 (Homo sapiens)
# Procedure summary: Compound was tested for inhibition of IL-1 beta converting enzyme by measuring second order rate of inactivation
Exercise: state measured second-order inactivation rate constant (kobs/[I]) for each of the compounds provided.
Numbers only, in M⁻¹ s⁻¹.

Ask | Fill in the recorded second-order inactivation rate constant (kobs/[I]) for this compound, with Caspase-1 (Homo sapiens) as test system: CC(C)[C@H](NC(=O)OCc1ccccc1)C(=O)N[C@@H](C)C(=O)NC(CC(=O)O)C(=O)COC1=C(Cc2ccccc2)C(=O)OC1 (some centres undefined)
Reply | 290000

Ask | Fill in the recorded second-order inactivation rate constant (kobs/[I]) for this compound, with Caspase-1 (Homo sapiens) as test system: CC(C)[C@H](NC(=O)OCc1ccccc1)C(=O)N[C@@H](C)C(=O)NN(CC(=O)O)C(=O)CBr
Reply | 1640

Ask | Fill in the recorded second-order inactivation rate constant (kobs/[I]) for this compound, with Caspase-1 (Homo sapiens) as test system: CC(C)[C@H](NC(=O)OCc1ccccc1)C(=O)N[C@@H](C)C(=O)NN(CC(=O)O)C(=O)CCl
Reply | 27300

Consider now this further compound.
Ask | Fill in the recorded second-order inactivation rate constant (kobs/[I]) for this compound, with Caspase-1 (Homo sapiens) as test system: CC(C)[C@H](NC(=O)OCc1ccccc1)C(=O)N[C@@H](C)C(=O)NN(CC(=O)O)C(=O)COC1=C(Cc2ccccc2)C(=O)OC1
Reply | 120
